Kindly state melting point for each of the entries shown.

Prompt: Requested field: melting point. Item: Cc1cccc(N2CCN(CCCc3ccc(C4CCC(=O)N4)cc3)CC2)c1 (configuration not stated)
Response: 87 to 89 °C

Prompt: Follow-up entry: "O=C(NCC1CC1)C(c1ccccc1)c1ccccc1"
Response: 130 °C

Prompt: Follow-up entry: "NNc1c(F)cc(F)c(F)c1F"
Response: 63 to 65 °C

Prompt: Follow-up entry: "COC(=O)n1cc2c(c1)-c1ccc(Cl)cc1C(c1ccccc1Cl)=[N+]([O-])C2"
Response: 224 to 226 °C

Prompt: Follow-up entry: "COc1cc(/C=C2/C(=O)NC(=O)/C2=C/c2ccccc2)cc(OC)c1OC"
Response: 176 to 178 °C

Prompt: Follow-up entry: "COC(=O)CCC(=O)c1cc(NC(C)=O)ccc1O"
Response: 145 to 147 °C

Prompt: Follow-up entry: "O=c1oc2c(-c3ccccc3)cccc2c(OCCN2CCOCC2)c1-c1ccccc1"
Response: 106 to 108 °C

* * *

metric: melting point

Prompt: Requested field: melting point. Item: "O=C(c1ccc(Cl)cc1)c1cc(-c2cccnc2)c(N2CCOCC2)s1"
Response: 196 °C

Prompt: Follow-up entry: O=C1C(CCO)Oc2cc([N+](=O)[O-])ccc2N1Cc1ccccc1[N+](=O)[O-] (stereo not drawn)
Response: 139 to 143 °C

Prompt: Follow-up entry: "CN(C)CCC1(CO)c2ccccc2N(C)c2ccccc21"
Response: 150 °C

Prompt: Follow-up entry: "CCc1noc(-c2cc3c(cn2)[nH]c2cccc(Oc4ncccn4)c23)n1"
Response: 254 to 256 °C

Prompt: Follow-up entry: C=C(C)CC(OS(C)(=O)=O)C(Cl)(Cl)Cl (stereo not drawn)
Response: 60 to 61 °C

Prompt: Follow-up entry: "COCc1cccc(CC#N)c1[N+](=O)[O-]"
Response: 34 to 36 °C

Prompt: Follow-up entry: "C1=CNC=c2ccccc2=C1"
Response: 128 °C

Prompt: Follow-up entry: "CN1CCN(c2ccc(N)cc2F)CC1"
Response: 89 to 91 °C

Prompt: Follow-up entry: "Nc1nc(-c2ccccc2)c(-c2ccnc(Nc3cccc(I)c3)n2)s1"
Response: 243 to 244 °C

Prompt: Follow-up entry: COc1ccc(C(C#N)Nc2ccc(S(C)(=O)=O)cc2)cc1 (stereo not drawn)
Response: 131 to 132 °C

Prompt: Follow-up entry: N#Cc1c(-c2ccccc2)sc2c1CNCC2c1ccccc1 (stereo not drawn)
Response: 160 °C

Prompt: Follow-up entry: "COc1cc(COc2ccc(N)nn2)c(Br)c(OC)c1OC"
Response: 160 to 161 °C

Prompt: Follow-up entry: "N#Cc1ccc2oc(CCc3cc4cc(C#N)ccc4o3)cc2c1"
Response: 243 to 244 °C

Prompt: Follow-up entry: "CC(=O)C=Cc1cc2ccccc2o1"
Response: 100 to 101 °C

Prompt: Follow-up entry: "CC(C)OC(=O)C=Cc1ccc(N)cc1"
Response: 78 to 80 °C

Prompt: Follow-up entry: "CCOc1nc(N)nc2sc(-c3ccc(F)cc3)cc12"
Response: 142 °C

Prompt: Follow-up entry: "Nc1ccccc1Nc1ccccn1"
Response: 124 to 125 °C

Prompt: Follow-up entry: "CCOC(=O)Cn1c(C(=O)NCc2nnc(C)n2-c2sc(CC)cc2C(=O)c2ccccc2)cc2ccccc21"
Response: 129 to 131 °C

Prompt: Follow-up entry: "N=C(N)NC(=O)OCCNC(=O)c1ccc2cc(C(=O)NC(=N)N)ccc2c1"
Response: 205 °C

Prompt: Follow-up entry: "CC(=O)c1ccc(S(=O)(=O)NCCO)cc1"
Response: 119 to 121 °C

Prompt: Follow-up entry: "Cc1ccccc1C(=O)Nc1ccc(C(=O)N2Cc3cc(Cl)ccc3Oc3ccccc32)cc1"
Response: 207 to 208 °C

Prompt: Follow-up entry: CCC1c2ncn(C)c2CCN1C(=S)NC(C)C (stereo not drawn)
Response: 186 °C

Prompt: Follow-up entry: "CN1CCN(S(=O)(=O)c2cc(NC(=O)c3cnn4c(C(F)(F)F)cc(-c5ccc(C(F)(F)F)cc5)nc34)c(Cl)s2)CC1"
Response: 301 °C

* * *

Kindly state melting point for each of the entries shown.

Prompt: Requested field: melting point. Item: CCC(C(=O)O)c1ccc(N[C@@H](CCC(N)=O)C(=O)O)cc1 (stereo partly drawn)
Response: 166 to 167 °C

Prompt: Follow-up entry: "CSC(=N[N+](=O)[O-])NCc1ccc(Cl)nc1"
Response: 140 to 142 °C

Prompt: Follow-up entry: "COc1ccc(CCNC(=O)C(N)=O)cc1OCCCCO"
Response: 47 to 49 °C

* * *

metric: melting point

Prompt: Requested field: melting point. Item: "C/C=C\Cn1c(Oc2cc(C)cc(C)c2)c(C(C)C)c(=O)[nH]c1=O"
Response: 141 to 142 °C

Prompt: Follow-up entry: CCCN1CCC23c4cccc(O)c4OC2C2CCC3(C1)C(COC)C2 (stereo not drawn)
Response: 130 to 131 °C

Prompt: Follow-up entry: "Cc1c(OCCn2ccnc2)ccc2c1CC/C(=C\c1cccs1)C2=O"
Response: 182 to 184 °C

* * *

Kindly state melting point for each of the entries shown.

Prompt: Requested field: melting point. Item: "CCNC(=O)c1ccc(-c2ccc3nnn(Cc4ccc5ncccc5c4)c3n2)cc1F"
Response: 207 to 209 °C

Prompt: Follow-up entry: "CN1CC(=O)Nc2ccccc21"
Response: 132 °C

Prompt: Follow-up entry: "COc1cc(NC(=O)Nc2ccccc2)ccn1"
Response: 127 to 129 °C

Prompt: Follow-up entry: "CN(Cc1ccccc1C(F)(F)F)C1CCN(c2ccc(OC[C@@]3(C)Cn4cc([N+](=O)[O-])nc4O3)cc2)CC1"
Response: 190 °C

Prompt: Follow-up entry: "COC(=O)[C@H](Cc1c(Br)n(Cc2ccccc2)c2cc(Br)c(OC)c(Br)c12)NC(C)=O"
Response: 226 to 227 °C

Prompt: Follow-up entry: "COc1cc(Nc2c(C#N)cnc3cc(C#CCCN(C)C)c(OC)cc23)c(Cl)cc1Cl"
Response: 177 to 179 °C

Prompt: Follow-up entry: "CCNC(=O)c1c([Si](C)(C)C)sc(C)c1C"
Response: 90 to 94 °C

Prompt: Follow-up entry: "CN1CCN(c2cc(Cl)cc3c2c(=O)n(-c2ccccc2)c(=O)n3Cc2ccccc2)CC1"
Response: 111 to 119 °C

Prompt: Follow-up entry: "COC(=O)[C@@H](CCN1C(=O)c2ccccc2C1=O)Oc1c(Br)cc(-c2c(Br)ccc3sc4ccccc4c23)cc1Br"
Response: 99 to 101 °C

Prompt: Follow-up entry: CNC(=O)N(O)C(C)c1cc2ccccc2s1 (stereo unspecified)
Response: 149 to 150 °C

Prompt: Follow-up entry: Cc1ccc(S(=O)(=O)NCCC(C(=O)OC(C)(C)C)C2(CC(C)C)CCN(CCc3ccccc3)C2=O)cc1 (stereo unspecified)
Response: 136 to 138 °C

* * *

metric: melting point

Prompt: Requested field: melting point. Item: "Ic1ccc(OCCCCCCCN2CC2)nc1"
Response: 41 to 45 °C

Prompt: Follow-up entry: "CN(c1ccc(Cl)cc1)c1ncccc1[N+](=O)[O-]"
Response: 107 to 110 °C

Prompt: Follow-up entry: CCOCN(c1ccccc1CN1CCC(c2ccccc2)OC1=O)S(=O)(=O)C(F)(F)F (configuration not stated)
Response: 116 °C

Prompt: Follow-up entry: CC(C)(C)OC(=O)N1CC2C(CCC3(C)C(C(=O)O)CCC23)C2(C)CCC(=O)C=C12 (configuration not stated)
Response: 215 to 216 °C

Prompt: Follow-up entry: "O=C([C@@H]1C[C@@H]2CCCC[C@@H]2N1)N1CCCC1"
Response: 83 °C

Prompt: Follow-up entry: CC1(O)CCC2C3CCC4=CC(=O)CCC4C3C(=CF)CC21C (configuration not stated)
Response: 127 to 131 °C

Prompt: Follow-up entry: "OC(c1ccc(F)cc1)(c1ccc(F)cc1)c1ncc[nH]1"
Response: 198 to 200 °C

Prompt: Follow-up entry: "CS(=O)(=O)OCc1ccc(-c2nnc3n2-c2cccnc2Nc2ccccc2-3)cc1"
Response: 252 to 253 °C

Prompt: Follow-up entry: "C=Cc1c(C(=O)NC2CC2)nnn1-c1ccc(C(=O)NCC)cc1"
Response: 162 °C

Prompt: Follow-up entry: "O=C1Nc2ccccc2C1=c1[nH]c(=O)c(=Cc2ccc(OCc3ccccc3)cn2)[nH]c1=O"
Response: > 300 °C

Prompt: Follow-up entry: "NS(=O)(=O)c1cncc([N+](=O)[O-])c1"
Response: 168 °C

Prompt: Follow-up entry: "O=C(Cc1ccc(-c2ccc(F)cc2F)c(F)c1)NO"
Response: 149 to 150 °C

The reported numbers originate from a melting point compilation (Tetko et al.; mined from patent text by program, amines drawn as free bases though some values may be those of a salt).
